All values here come from patent US8575203B2.

target.of.assay: Recombinant human PDK1 enzyme (aa 52-556) (Homo sapiens (Human))
assay.overview: PDK1 kinase assay
condition.summary: in vitro kinase assay, His6-PDK1 (aa 52-556), PDKtide, P33-ATP
experimental.readout: IC50
Lab note: write values as number then unit, every time.

CNC(=O)c1cnc2ccc(C#CCNC(=O)c3cncn(Cc4ccc(F)c(F)c4)c3=O)c(C)c2c1 | 21 nM
O=C(NCC#Cc1ccc2nccc(OCC3CCCOC3)c2c1)c1cccn(Cc2ccc(F)c(F)c2)c1=O (stereo not shown) | 46 nM
NC(=O)[C@@H](Cc1ccccc1)Nc1ncnc2ccc(C#CCNC(=O)c3cncn(Cc4ccc(F)c(F)c4)c3=O)cc12 | 488 nM

Switching to the query record.
Using the record for `CNc1ncnc2ccc(C#CCNC(=O)c3cccn(Cc4ccoc4)c3=O)cc12` , report its IC50.
770 nM

###

target.of.assay: Recombinant human PDK1 enzyme (aa 52-556) (Homo sapiens (Human), UniProt O15530)
Sequence (O15530 52-556): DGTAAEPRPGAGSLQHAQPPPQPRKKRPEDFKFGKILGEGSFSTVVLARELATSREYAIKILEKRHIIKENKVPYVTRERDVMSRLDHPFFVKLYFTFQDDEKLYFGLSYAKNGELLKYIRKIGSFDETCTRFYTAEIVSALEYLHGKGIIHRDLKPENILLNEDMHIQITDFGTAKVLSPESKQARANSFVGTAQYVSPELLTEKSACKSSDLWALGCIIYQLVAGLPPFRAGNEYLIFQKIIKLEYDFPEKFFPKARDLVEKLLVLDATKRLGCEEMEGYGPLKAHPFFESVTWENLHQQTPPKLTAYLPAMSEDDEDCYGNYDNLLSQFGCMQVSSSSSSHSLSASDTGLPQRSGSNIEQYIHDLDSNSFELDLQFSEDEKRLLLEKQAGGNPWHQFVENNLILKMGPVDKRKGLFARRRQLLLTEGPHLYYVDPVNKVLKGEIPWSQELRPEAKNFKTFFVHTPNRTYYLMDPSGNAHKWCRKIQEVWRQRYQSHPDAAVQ
assay.overview: PDK1 kinase assay
condition.summary: in vitro kinase assay, His6-PDK1 (aa 52-556), PDKtide, P33-ATP
experimental.readout: pIC50
Bear in mind: pIC50 is minus log10 of a mol/L concentration; give just that figure.

Some compounds with known pIC50 results, for comparison:
CN(c1c(C#N)cnc2ccc(C#CCNC(=O)c3cccn(Cc4ccc(F)c(F)c4)c3=O)cc12)C1CCCCC1 [II-95] | 6.26
CNc1ncnc2ccc(C#CCNC(=O)c3cccn([C@@H](C)c4ccc(F)c(F)c4)c3=O)cc12 [II-60] | 8.10

Using the record for CC(C)N(C)c1c(C#N)cnc2ccc(C#CCNC(=O)c3cccn(Cc4ccc(F)c(F)c4)c3=O)cc12 [II-101] , report its pIC50.
6.83

And for COc1ccc(CCNc2ncnc3ccc(C#CCNC(=O)c4cncn(Cc5ccc(F)c(F)c5)c4=O)cc23)cc1 [II-18] ?
7.39

###

Documented IC50 across a set of molecules
target.of.assay: Recombinant human PDK1 enzyme (aa 52-556) (Homo sapiens (Human), UniProt O15530)
assay.overview: PDK1 kinase assay
condition.summary: in vitro kinase assay, His6-PDK1 (aa 52-556), PDKtide, P33-ATP
Lab note: write values as number then unit, every time.

CN(C)CCOc1ccnc2ccc(C#CCNC(=O)c3cccn(Cc4ccc(F)c(F)c4)c3=O)cc12 [I-98] | 25 nM

Using the record for O=C(NCC#Cc1ccc2nccc(OCC3CCCNC3)c2c1)c1cncn(Cc2ccc(F)c(F)c2)c1=O (stereo not shown) [I-123] , report its IC50.
2 nM

And for CC(c1ccc(F)c(F)c1)n1cccc(C(=O)NCC#Cc2ccc3nccc(OC[C@H]4CCN(C)C4)c3c2)c1=O (stereo partly shown) [I-125.10] ?
3 nM

And for CC(=O)N[C@@H]1CCN(c2ncnc3ccc(C#CCNC(=O)c4cccn(Cc5ccc(F)c(F)c5)c4=O)cc23)C1 [II-30] ?
21 nM

###

target.of.assay: Recombinant human PDK1 enzyme (aa 52-556) (Homo sapiens (Human), UniProt O15530)
assay.overview: PDK1 kinase assay
condition.summary: in vitro kinase assay, His6-PDK1 (aa 52-556), PDKtide, P33-ATP
One threshold, 60 nM, splits the recorded IC50 values: lower ones are 1.0, equal or higher ones are 0.0.

Look over these answered cases.
CN(C)CCCOc1ccnc2ccc(C#CCNC(=O)c3cccn(Cc4cc(F)c(F)c(F)c4)c3=O)cc12 [I-125.2] | 1.0
COc1ccnc2ccc(C#CCNC(=O)c3cncn(Cc4ccc(F)c(F)c4)c3=O)cc12 [I-91] | 1.0
O=C(NCC#Cc1ccc2ncnc(NC3CCOCC3)c2c1)c1cncn(Cc2ccc(F)c(F)c2)c1=O [II-21] | 0.0
COC(C)CCOc1ccnc2ccc(C#CCNC(=O)c3cccn(Cc4ccc(F)c(F)c4)c3=O)cc12 (centres unmarked) [I-110] | 0.0
COCCN1CCC(Nc2cnc3ccc(C#CCNC(=O)c4ccnn(Cc5ccc(F)c(F)c5)c4=O)cc3n2)CC1 [I-53] | 1.0
Cc1ccnc2ccc(C#CCNC(=O)c3cncn(Cc4ccc(F)c(F)c4)c3=O)cc12 [II-92] | 1.0

Hi there! Is IC50 for CCN1CC[C@@H](Nc2cnc3ccc(C#CCNC(=O)c4cncn(Cc5ccc(F)c(F)c5)c4=O)cc3n2)[C@@H](F)C1 [I-45] below 60 nM, do you know?
1.0

###

Documented pIC50 across a set of compounds
target.of.assay: Recombinant human PDK1 enzyme (aa 52-556) (Homo sapiens (Human))
assay.overview: PDK1 kinase assay
condition.summary: in vitro kinase assay, His6-PDK1 (aa 52-556), PDKtide, P33-ATP
Bear in mind: pIC50 is minus log10 of a mol/L concentration; give just that figure.

Some compounds with known pIC50 results, for comparison:
Cc1c(C#CCNC(=O)c2cncn(Cc3ccc(F)c(F)c3)c2=O)ccc2ncc(C(=O)N(C)C)cc12 | 6.73
O=C(NCC#Cc1ccc2ncc(NC3CCN(CCO)CC3)nc2c1)c1cncn(Cc2ccc(F)c(F)c2)c1=O | 8.52
CN1CCC(Oc2cnc3ccc(C#CCNC(=O)c4cncn(Cc5ccc(F)c(F)c5)c4=O)cc3n2)CC1 | 7.25
CN(C)CC(C)(C)COc1ccnc2ccc(C#CCNC(=O)c3cncn(Cc4ccc(F)c(F)c4)c3=O)cc12 | 7.89
CN(C)CCCN(C)C(=O)c1cnc2ccc(C#CCNC(=O)c3cncn(Cc4ccc(F)c(F)c4)c3=O)cc2c1 | 6.70

Using the record for `CN1CCN(Nc2cnc3ccc(C#CCNC(=O)c4cncn(Cc5ccc(F)c(F)c5)c4=O)cc3n2)CC1` , report its pIC50.
7.06

And for `CCN(CC)c1ncnc2ccc(C#CCNC(=O)c3cccn([C@H](CO)c4ccccc4)c3=O)cc12` ?
8.22

And for `CN1CC(NC(=O)c2cnc3ccc(C#CCNC(=O)c4cncn(Cc5ccc(F)c(F)c5)c4=O)cc3c2)C1` ?
7.70

###

target.of.assay: Recombinant human PDK1 enzyme (aa 52-556) (Homo sapiens (Human))
assay.overview: PDK1 kinase assay
condition.summary: in vitro kinase assay, His6-PDK1 (aa 52-556), PDKtide, P33-ATP
Documented log10(IC50) across a set of compounds
All values: base-10 log of IC50 in nM.

Some compounds with known log10(IC50) results, for comparison:
O=C(NCC#Cc1ccc2ncnc(-c3ccccc3)c2c1)c1cncn(Cc2ccc(F)c(F)c2)c1=O | 1.76
CN1CCC(Nc2cnc3ccc(C#CCNC(=O)c4cncn(Cc5ccc(F)c(F)c5)c4=O)cc3c2)CC1 | 0.00
COCCN1CCC(Nc2cnc3ccc(C#CCNC(=O)c4cccn(Cc5ccc(F)c(F)c5)c4=O)cc3n2)CC1 | 0.95
CN(C)CCCNc1ccnc2ccc(C#CCNC(=O)c3cncn(Cc4ccc(F)c(F)c4)c3=O)cc12 | 2.74
CN(C)CCCOc1ccnc2ccc(C#CCNC(=O)c3cccn(C(CO)c4ccc(F)c(F)c4)c3=O)cc12 (centres unmarked) | 0.30
N#Cc1cnc2ccc(C#CCNC(=O)c3cccn(Cc4ccc(F)c(F)c4)c3=O)cc2c1NCC1CCCCC1 | 3.03

Using the record for `CCN1CC[C@H](Nc2cnc3ccc(C#CCNC(=O)c4cncn(Cc5ccc(F)c(F)c5)c4=O)cc3n2)[C@H](F)C1` , report its log10(IC50).
0.60

And for `CON(C)c1ncnc2ccc(C#CCNC(=O)c3cncn(Cc4ccc(F)c(F)c4)c3=O)cc12` ?
1.20

###

target.of.assay: Recombinant human PDK1 enzyme (aa 52-556) (Homo sapiens (Human), UniProt O15530)
assay.overview: PDK1 kinase assay
condition.summary: in vitro kinase assay, His6-PDK1 (aa 52-556), PDKtide, P33-ATP
experimental.readout: pIC50
Bear in mind: pIC50 is minus log10 of a mol/L concentration; give just that figure.

CC(c1cc(F)c(F)c(F)c1)n1cccc(C(=O)NCC#Cc2ccc3nccc(OC[C@@H]4CCCN(C)C4)c3c2)c1=O (stereo partly shown) | 8.70

Using the record for `COCCN1CCC(Nc2cnc3ccc(C#CCNC(=O)c4cccn([C@H](CO)c5cccc(F)c5)c4=O)cc3n2)CC1` , report its pIC50.
8.40

And for `O=C(NCC#Cc1ccc2ncc(N[C@H]3CC[C@H](N4CCN(CC5CC5)CC4)CC3)nc2c1)c1cncn(Cc2ccc(F)c(F)c2)c1=O` ?
8.52

And for `CN(C)c1c(C#N)cnc2ccc(C#CCNC(=O)c3cccn(Cc4ccc(F)c(F)c4)c3=O)cc12` ?
7.57

###

target.of.assay: Recombinant human PDK1 enzyme (aa 52-556) (Homo sapiens (Human), UniProt O15530)
assay.overview: PDK1 kinase assay
condition.summary: in vitro kinase assay, His6-PDK1 (aa 52-556), PDKtide, P33-ATP
pIC50: −log10 of the molar value.
Answer class 0 if pIC50 is under 7, and class 1 if it is 7 or more.

Look over these answered cases.
O=C(NC1CC1)c1cnc2ccc(C#CCNC(=O)c3cncn(Cc4ccc(F)c(F)c4)c3=O)cc2c1 | class 1
CN(CCc1ccccc1)c1c(C#N)cnc2ccc(C#CCNC(=O)c3cccn(Cc4ccc(F)c(F)c4)c3=O)cc12 | class 0
CC(c1cc(F)c(F)c(F)c1)n1cccc(C(=O)NCC#Cc2ccc3nccc(OC[C@@H]4CCN(C)C4)c3c2)c1=O (stereo partly drawn) | class 1

Quick check, pIC50 >= 7? `COCCN1CCC(Nc2cnc3ccc(C#CCNC(=O)c4cccn([C@@H](C)c5ccc(F)c(F)c5)c4=O)cc3n2)CC1`
class 1

And for `CCN1CCN(C(=O)c2cnc3ccc(C#CCNC(=O)c4cncn(Cc5ccc(F)c(F)c5)c4=O)cc3c2)CC1` ?
class 0

And for `CC(C)Oc1ccnc2ccc(C#CCNC(=O)c3cncn(Cc4ccc(F)c(F)c4)c3=O)cc12` ?
class 1

And for `C[C@@H](c1cc(F)c(F)c(F)c1)n1cccc(C(=O)NCC#Cc2ccc3nccc(OC[C@@H]4CCCN(CCN5CCOCC5)C4)c3c2)c1=O` ?
class 1
